Attribution: paper PMC10322702

system_name: UniProt:P0DTD1
procedure_summary: biochemical
Format: biochemical
Bridge positions count the residues as written; N and C are the ends. Square brackets hold non-standard residues; d marks the D form. Peptide text beside a SMILES is read from it.
metric_name: IC50 (nM)
One number for each entry, in nM.

Query: IC50; subject: CC[C@H](C)[C@@H]1NC(=O)[C@H](Cc2ccc(O)cc2)NC(=O)[C@H](CC(C)C)NC(=O)[C@H](CC(=O)O)NC(=O)[C@H](CCCNC(=N)N)NC(=O)[C@H](Cc2ccccc2)NC(=O)[C@H](C)NC(=O)[C@H](Cc2c[nH]cn2)NC(=O)[C@H](Cc2ccccc2)NC(=O)[C@@H](Cc2ccc(O)cc2)NC(=O)CSC[C@H](C(N)=O)NC(=O)CNC(=O)[C@H](CC(C)C)NC1=O [GM5γ^24A] ({CH2CO}-[dY]FHAFRDLYILG[dC]-NH2; thioether N-13)
50
